Test: HRE-luciferase activation under added iron, dose response, mechanism study for HIF activator project, cell-based, iron medium, luminescence, U2OS, dry powder (AID 493228)
Details: U2OS HRE-luciferase reporter, iron medium, luminescence; at 38 µM (top of the series)
Records with an inconclusive call do not appear.
Criterion: activation meeting or surpassing 30%. Met: criterion met. Not met: criterion not met.

// below: answered compounds
1. C=CCNc1nc(-c2ccccn2)nnc1-c1ccccc1 ... criterion met
2. C[C@@H](Nc1nc(-c2ccccn2)nnc1-c1ccccc1)C1CCCCC1 ... criterion met
3. Cc1ccccc1CNC(=O)c1cc(-c2ccccc2)on1 ... criterion met

For this compound, is measured activation 30% or higher? c1ccc(-c2nnc(-c3ccccn3)nc2NCCCN2CCOCC2)cc1
criterion met

One more compound: N#CC1(c2ccccc2)CCN(Cc2ccc(O)c3ncccc23)CC1
criterion not met

Please give the result for O=C(NCc1ccccc1)c1cc(-c2ccccc2)on1 too.
criterion met

Do the same for O=C(Nc1cnc2ccccc2c1)c1cc(-c2ccccc2)on1 please
criterion not met

Entry to check: c1ccc(-c2nnc(Nc3nc(-c4ccccn4)nnc3-c3ccccc3)s2)cc1
criterion met

How about O=C(Nc1cn2ccccc2n1)c1cc(-c2ccccc2)on1 ?
criterion met

Next record, please: O=C(Nc1nc(-c2ccccc2)cs1)c1cc(-c2ccccc2)on1
criterion not met

What about O=C(Nc1nnc(-c2ccccc2)s1)c1cc(-c2ccccc2)on1 ?
criterion not met

Same question, O=C(NC1Cc2ccccc2C1)c1cc(-c2ccccc2)on1 this time
criterion met

Cc1ccc(CNC(=O)c2cc(-c3ccccc3)on2)cc1 ?
criterion not met

// same read-out, input: c1ccc(-c2nnc(-c3ccccn3)nc2NCc2cccnc2)cc1
criterion met

Another: c1ccc(-c2csc(Nc3nc(-c4ccccn4)nnc3-c3ccccc3)n2)cc1
criterion met

Let us now turn to c1ccc(-c2nnc(-c3ccccn3)nc2Nc2cnc3ccccc3n2)cc1
criterion met

Cool, now c1ccc(-c2nnc(-c3ccccn3)nc2N2CCC(c3ccccc3)C2)cc1 (stereo not drawn)
criterion met

Please do the same for O=C(c1cc(-c2ccccc2)on1)N1CCC(N2CCCC2)CC1 as well.
criterion not met
